Data origin: paper PMC7688903

# Tested on: human erythrocytes
# assay_explanation: Hemolytic activity assay
# Type: cell-based
# run_conditions: 64 μM; human RBC in PB, 37°C, 1 h; OD420; total lysis control 0.1% SDS; three technical replicates
# Method: Whole blood was obtained from a healthy volunteer. […] After incubation, the RBC were centrifuged at 800 × g for 10 min and the amount of hemoglobin released into the supernatant was determined by measuring the optical density OD420 using a SpectraMax i3x microplate reader (Molecular Devices) ([Zaet et al., 2017]).
Where a SMILES comes first, the peptide text is derived from it. [ ]: non-standard residue; d: D form. 2Thi = N[C@@H](Cc1cccs1)C(=O)O; Aib = CC(C)(N)C(=O)O
readout_label: Hemolysis rate (%)

Hemolysis rate (%) for CC(C)C[C@H](NC(=O)[C@H](Cc1ccc(O)cc1)NC(=O)[C@H](CCCCN)NC(=O)[C@H](CC(C)C)NC(=O)[C@H](CC(C)C)NC(=O)[C@H](CCCCN)NC(=O)[C@H](CCCCN)NC(=O)[C@H](Cc1ccccc1)NC(=O)[C@H](CC(C)C)NC(=O)[C@H](CCCNC(=N)N)NC(=O)C(C)(C)N)C(=O)N[C@@H](CCCNC(=N)N)C(=O)N[C@@H](CCCCN)C(=O)N[C@@H](Cc1cccs1)C(N)=O [UP09] (H-[Aib]RLFKKLLKYLRK[2Thi]-NH2; N-terminus assumed) ?
55.99 ± 3.75 %
